# Tested on: MTT (mouse pheochromocytoma)
# EXPERIMENT_NOTES: IC50 of cell viability (ATP content)
# CONDITION_CONTEXT: (24 or 48 h)
Where a name gives a salt, the structure may show the parent alone.
Please respond with reported IC50 of cell viability for every item in the list.

As a guide, the following entries are already answered.
O\C1=C(/C2CCC(CC2)C3=CC=C(Cl)C=C3)C(=O)C4=C(C=CC=C4)C1=O (stereo not given)
> 46 µM
CC1NCCOC1c1ccccc1 (stereo not given) [Phenmetrazine Hydrochloride]
> 46 µM
CCCCc1oc2ccccc2c1C(=O)c1cc(I)c(OCCN(CC)CC)c(I)c1 [AMIODARONE]
> 46 µM

Please look at the items below and tell me IC50 of cell viability for each one, in order.
1. COC(C)(C)CCCC(C)C/C=C/C(C)=C/C(=O)OC(C)C (stereo not given)
2. C[C@@H]1COC2=C3N1\C=C(\C(O)=O)C(=O)C3=CC(=C2N4CCN(C)CC4)F

1. > 46 µM
2. > 46 µM

----------
# Tested on: MTT (mouse pheochromocytoma)
# EXPERIMENT_NOTES: IC50 of cell viability (ATP content)
# CONDITION_CONTEXT: (24 or 48 h)
Structures can show the parent of a compound that is named as a salt.
Task for the reader: assign each of the following molecules its reported IC50 of cell viability.

O=C(O)CCCc1ccccc1 [SODIUM PHENYLBUTYRATE]
> 46 µM
Cn1cc(C(=O)[C@@H]2CCc3[nH]cnc3C2)c2ccccc21 [RAMOSETRON HYDROCHLORIDE]
> 46 µM

# input for lookup
Input `CCN(CC)CCOCCOC(=O)C1(c2ccccc2)CCCC1` . Output IC50 of cell viability: > 46 µM

----------
# Test system: MTT (mouse pheochromocytoma)
# EXPERIMENT_NOTES: efficacy (maximal response) relative to doxorubicin = -100% and DMSO = 0%; higher = less inhibition of viability
# CONDITION_CONTEXT: (24 or 48 h)
ENDPOINT: efficacy (%)
Answers are plain numbers, in %.

COC(=O)Nc1nc2cc(C(=O)c3cccs3)ccc2[nH]1
-60.2
CCCSc1ccc2[nH]c(NC(=O)OC)nc2c1
-57.9

Please find the next molecule below.
// recorded efficacy for `CO[C@@]12[C@H](COC(N)=O)C\3=C(/N1C[C@H]4N[C@@H]24)C(=O)\C(=C(N)/C3=O)C` : -34.6
